All figures here come from ChEMBL document CHEMBL2010689.

assay: Plasma protein binding in human; assay type: ADME, cell-free; conditions: read-out: PPB (converted)
readout_kind: fraction unbound
No unit in the answer, please; the number alone is enough.

Query: # lookup: fraction unbound of "CC(C)Cn1c2ccc(Nc3ncccn3)cc2c2c3c(c4c(c21)CCc1nn(C)cc1-4)C(=O)NC3"
Reply: 0.05

* * *

experiment: Cmax in cynomolgus monkey at 3 mg/kg, po; format: ADME, organism-based, Macaca fascicularis; set-up: dose 3 mg/kg, route oral; settings: in vivo
readout_kind: Cmax (ng/mL)
Numbers only here, please. The scale is ng/mL.

Query: Tell me the measured Cmax of "CC(C)Cn1c2ccc(Nc3ncccn3)cc2c2c3c(c4c(c21)CCc1nn(C)cc1-4)C(=O)NC3" , please.
Reply: 491

* * *

assay: Clearance in Sprague-Dawley rat at 0.8 mg/kg, iv; type: ADME, organism-based; design: dose 0.8 mg/kg, route intravenous; conditions: in vivo
readout_kind: clearance (mL/min/kg)
// note: answer is a bare numeric in mL/min/kg

Query: Can you share its clearance? I mean this molecule: "CC(C)Cn1c2ccc(Nc3ncccn3)cc2c2c3c(c4c(c21)CCc1nn(C)cc1-4)C(=O)NC3"
Reply: 4.3

* * *

experiment: Cmax in athymic nude mouse plasma xenografted with human A375 cells at 10 mg/kg, po
readout_kind: Cmax (ng/mL)
Quick note: give the figure in ng/mL, leave out the unit.

Query: Given the compound "CC(C)Cn1c2ccc(Nc3ncccn3)cc2c2c3c(c4c(c21)CCc1nn(C)cc1-4)C(=O)NC3" , what is its reported Cmax?
Reply: 456

* * *

Assign remaining at 2 h to each entry below.
experiment: Metabolic stability in rat liver S9 fraction assessed as compound remaining after 2 hrs; assay type: ADME, subcellular; conditions: read-out: Stability
Output spec: scalar in %, unitless text.

Query: Would you mind telling me what remaining at 2 h value was observed for "CCCn1c2ccc(Nc3ncccn3)cc2c2c3c(c4c(c21)CCc1nn(C)cc1-4)C(=O)NC3" ?
Reply: 65

Query: Quick one: CC(C)Cn1c2ccc(Nc3ncccn3)cc2c2c3c(c4c(c21)CCc1nn(C)cc1-4)C(=O)NC3 [CEP-11981]
Reply: 65

* * *

experiment: Terminal half life in Sprague-Dawley rat at 0.8 mg/kg, iv; type: ADME, organism-based; parameters: dose 0.8 mg/kg, route intravenous; settings: in vivo, read-out: beta t1/2 (converted)
readout_kind: half-life (h)
Enter your answer as a number in h; do not include the unit.

Query: If you can, please state the reported half-life value of "CC(C)Cn1c2ccc(Nc3ncccn3)cc2c2c3c(c4c(c21)CCc1nn(C)cc1-4)C(=O)NC3" .
Reply: 1.9

* * *

biological target: Adenosine receptor A2a (Homo sapiens)
Sequence (P29274 whole entry): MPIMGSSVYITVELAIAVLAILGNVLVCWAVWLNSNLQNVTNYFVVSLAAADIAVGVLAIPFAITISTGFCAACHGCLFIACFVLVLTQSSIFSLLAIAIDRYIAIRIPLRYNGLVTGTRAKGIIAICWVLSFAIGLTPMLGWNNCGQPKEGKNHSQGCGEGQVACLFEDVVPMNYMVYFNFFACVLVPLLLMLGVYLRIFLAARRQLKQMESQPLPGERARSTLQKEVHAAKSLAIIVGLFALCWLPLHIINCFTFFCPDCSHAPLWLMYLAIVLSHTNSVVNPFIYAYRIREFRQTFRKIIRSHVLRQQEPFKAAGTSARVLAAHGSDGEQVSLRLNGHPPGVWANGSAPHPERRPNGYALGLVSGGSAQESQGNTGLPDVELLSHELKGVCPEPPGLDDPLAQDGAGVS
readout_kind: pKi
Keep in mind that pKi stands for -log10 of concentration in molar terms.

Query: Can you look up the measured pKi of "CC(C)Cn1c2ccc(Nc3ncccn3)cc2c2c3c(c4c(c21)CCc1nn(C)cc1-4)C(=O)NC3" for me?
Reply: 6.30

* * *

molecular target: UniProtKB P07333
Sequence (P07333 whole entry): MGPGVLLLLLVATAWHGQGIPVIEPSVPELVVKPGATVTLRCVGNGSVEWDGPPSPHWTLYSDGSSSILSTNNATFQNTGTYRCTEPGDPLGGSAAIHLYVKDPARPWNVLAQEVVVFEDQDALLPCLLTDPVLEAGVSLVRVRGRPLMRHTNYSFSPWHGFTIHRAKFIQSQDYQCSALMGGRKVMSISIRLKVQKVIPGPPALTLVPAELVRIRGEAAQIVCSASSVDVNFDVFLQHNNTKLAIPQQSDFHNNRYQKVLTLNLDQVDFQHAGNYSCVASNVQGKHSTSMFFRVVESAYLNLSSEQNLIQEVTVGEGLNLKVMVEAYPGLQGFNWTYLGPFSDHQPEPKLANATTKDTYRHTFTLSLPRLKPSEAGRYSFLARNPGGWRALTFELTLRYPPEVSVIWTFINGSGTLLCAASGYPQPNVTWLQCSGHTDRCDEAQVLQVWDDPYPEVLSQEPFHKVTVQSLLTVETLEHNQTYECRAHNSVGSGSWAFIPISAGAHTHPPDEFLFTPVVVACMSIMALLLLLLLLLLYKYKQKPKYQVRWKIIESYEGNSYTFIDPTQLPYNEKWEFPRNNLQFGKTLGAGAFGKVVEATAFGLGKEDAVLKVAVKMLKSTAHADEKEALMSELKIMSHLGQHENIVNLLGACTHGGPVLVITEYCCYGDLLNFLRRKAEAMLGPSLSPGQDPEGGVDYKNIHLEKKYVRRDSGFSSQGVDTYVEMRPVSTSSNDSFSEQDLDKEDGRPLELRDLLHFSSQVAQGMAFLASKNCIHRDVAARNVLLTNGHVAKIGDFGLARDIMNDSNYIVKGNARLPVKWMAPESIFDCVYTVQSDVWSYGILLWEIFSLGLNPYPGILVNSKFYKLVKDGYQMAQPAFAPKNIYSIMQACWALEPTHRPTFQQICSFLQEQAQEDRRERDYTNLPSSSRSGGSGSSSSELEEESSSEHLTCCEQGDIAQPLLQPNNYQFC
readout_kind: IC50
Answer by giving the amount and then stating its unit.

Query: Reported IC50, compound "CC(C)Cn1c2ccc(Nc3ncccn3)cc2c2c3c(c4c(c21)CCc1nn(C)cc1-4)C(=O)NC3" : ____
Reply: 0.078 µM

* * *

molecular target: UniProt Q9UM73
Sequence (Q9UM73 whole entry): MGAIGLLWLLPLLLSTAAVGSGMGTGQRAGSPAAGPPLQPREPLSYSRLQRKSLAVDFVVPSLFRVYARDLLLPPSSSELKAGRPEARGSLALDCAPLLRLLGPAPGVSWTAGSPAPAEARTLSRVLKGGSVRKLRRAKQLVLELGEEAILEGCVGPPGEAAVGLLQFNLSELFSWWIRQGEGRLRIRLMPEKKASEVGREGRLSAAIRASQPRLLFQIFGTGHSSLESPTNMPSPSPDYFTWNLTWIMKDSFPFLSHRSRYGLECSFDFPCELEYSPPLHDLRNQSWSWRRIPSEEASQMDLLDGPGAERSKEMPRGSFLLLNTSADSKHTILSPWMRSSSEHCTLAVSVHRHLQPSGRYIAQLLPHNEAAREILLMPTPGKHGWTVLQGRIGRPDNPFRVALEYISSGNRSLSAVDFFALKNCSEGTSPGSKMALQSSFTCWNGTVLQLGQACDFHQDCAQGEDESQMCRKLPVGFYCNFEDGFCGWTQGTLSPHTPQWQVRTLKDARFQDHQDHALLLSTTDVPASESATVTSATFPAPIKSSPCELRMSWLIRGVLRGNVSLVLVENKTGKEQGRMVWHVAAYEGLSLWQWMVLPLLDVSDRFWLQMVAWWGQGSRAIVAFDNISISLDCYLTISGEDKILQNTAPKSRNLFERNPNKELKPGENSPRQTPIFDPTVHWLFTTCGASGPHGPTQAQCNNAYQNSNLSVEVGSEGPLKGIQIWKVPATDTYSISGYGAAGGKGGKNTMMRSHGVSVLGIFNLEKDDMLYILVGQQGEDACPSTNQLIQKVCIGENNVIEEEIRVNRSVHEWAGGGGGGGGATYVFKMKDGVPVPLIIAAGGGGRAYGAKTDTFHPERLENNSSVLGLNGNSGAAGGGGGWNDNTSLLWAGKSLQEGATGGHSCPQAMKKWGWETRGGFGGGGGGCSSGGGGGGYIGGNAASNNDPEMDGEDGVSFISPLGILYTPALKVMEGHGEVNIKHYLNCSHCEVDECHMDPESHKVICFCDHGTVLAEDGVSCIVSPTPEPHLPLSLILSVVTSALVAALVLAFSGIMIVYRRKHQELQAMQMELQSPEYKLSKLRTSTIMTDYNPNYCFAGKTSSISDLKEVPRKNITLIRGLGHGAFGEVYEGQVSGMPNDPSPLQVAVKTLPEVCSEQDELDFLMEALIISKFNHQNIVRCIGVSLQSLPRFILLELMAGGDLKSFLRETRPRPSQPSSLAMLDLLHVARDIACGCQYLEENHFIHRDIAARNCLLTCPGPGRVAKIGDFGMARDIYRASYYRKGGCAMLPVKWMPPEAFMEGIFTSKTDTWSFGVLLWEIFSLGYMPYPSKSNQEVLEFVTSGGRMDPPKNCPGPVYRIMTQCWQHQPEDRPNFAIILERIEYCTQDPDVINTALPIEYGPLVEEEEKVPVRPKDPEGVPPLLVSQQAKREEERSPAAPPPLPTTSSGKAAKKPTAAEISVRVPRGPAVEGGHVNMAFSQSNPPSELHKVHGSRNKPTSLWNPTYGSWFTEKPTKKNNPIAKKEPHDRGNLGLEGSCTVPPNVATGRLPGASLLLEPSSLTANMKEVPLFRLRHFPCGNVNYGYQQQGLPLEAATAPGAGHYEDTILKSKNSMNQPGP
readout_kind: IC50
Could you kindly put the unit after your number?

Query: What does the data say about its IC50? Entry: "CC(C)Cn1c2ccc(Nc3ncccn3)cc2c2c3c(c4c(c21)CCc1nn(C)cc1-4)C(=O)NC3"
Reply: 132 nM

* * *

assay: Cmax in athymic nude mouse plasma xenografted with human U251MG cells at 30 mg/kg, po; format: ADME, organism-based, U-251; parameters: dose 30 mg/kg, route oral
readout_kind: Cmax (ng/mL)
Respond numerically; units are ng/mL and should not be typed.

Query: Name the recorded Cmax for "CC(C)Cn1c2ccc(Nc3ncccn3)cc2c2c3c(c4c(c21)CCc1nn(C)cc1-4)C(=O)NC3" .
Reply: 1200

* * *

assay: Clearance in cynomolgus monkey at 0.5 mg/kg, iv; format: ADME, organism-based, Macaca fascicularis; design: dose 0.5 mg/kg, route intravenous; conditions: in vivo
readout_kind: clearance (mL/min/kg)
Field: numeric (mL/min/kg). Do not append units.

Query: Name the recorded clearance for "CC(C)Cn1c2ccc(Nc3ncccn3)cc2c2c3c(c4c(c21)CCc1nn(C)cc1-4)C(=O)NC3" .
Reply: 18

* * *

biological target: BDNF/NT-3 growth factors receptor (Homo sapiens, UniProt Q16620)
Sequence (Q16620 whole entry): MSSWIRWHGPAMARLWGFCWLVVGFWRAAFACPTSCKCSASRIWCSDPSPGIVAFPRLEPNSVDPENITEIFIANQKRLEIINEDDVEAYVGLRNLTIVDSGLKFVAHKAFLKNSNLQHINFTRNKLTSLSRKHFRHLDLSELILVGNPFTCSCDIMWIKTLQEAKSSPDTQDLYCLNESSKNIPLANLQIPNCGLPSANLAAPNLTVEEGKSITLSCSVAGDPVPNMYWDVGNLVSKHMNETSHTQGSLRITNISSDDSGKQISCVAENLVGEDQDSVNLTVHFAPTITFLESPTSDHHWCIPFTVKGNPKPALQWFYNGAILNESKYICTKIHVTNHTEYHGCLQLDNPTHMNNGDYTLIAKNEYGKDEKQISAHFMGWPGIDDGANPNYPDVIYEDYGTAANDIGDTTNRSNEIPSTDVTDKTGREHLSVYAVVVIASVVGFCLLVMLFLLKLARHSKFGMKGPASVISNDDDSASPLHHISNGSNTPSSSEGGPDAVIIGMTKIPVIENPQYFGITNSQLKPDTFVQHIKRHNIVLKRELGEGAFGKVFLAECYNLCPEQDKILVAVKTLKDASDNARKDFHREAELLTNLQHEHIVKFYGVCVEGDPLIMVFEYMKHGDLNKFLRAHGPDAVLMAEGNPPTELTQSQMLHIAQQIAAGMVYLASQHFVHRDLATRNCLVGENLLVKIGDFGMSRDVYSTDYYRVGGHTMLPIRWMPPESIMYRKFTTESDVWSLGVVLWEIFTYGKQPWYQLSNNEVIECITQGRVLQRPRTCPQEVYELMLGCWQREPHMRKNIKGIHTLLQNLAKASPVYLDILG
readout_kind: IC50 (nM)
Please reply with the bare figure in nM and do not write the unit itself.

Query: For the compound shown here, CC(C)Cn1c2ccc(Nc3ncccn3)cc2c2c3c(c4c(c21)CCc1nn(C)cc1-4)C(=O)NC3 [CEP-11981] , give the reported IC50.
Reply: 5

* * *

assay: Cmax in athymic nude mouse tumor xenografted with human A375 cells at 10 mg/kg, po
readout_kind: Cmax (ng/g)
Express the result in ng/g but write the number alone.

Query: Field request: Cmax | item: "CC(C)Cn1c2ccc(Nc3ncccn3)cc2c2c3c(c4c(c21)CCc1nn(C)cc1-4)C(=O)NC3"
Reply: 140

* * *

Could you please report measured bioavailability for the items listed next?
experiment: Oral bioavailability in Sprague-Dawley rat at 5 mg/kg; assay type: ADME, organism-based; settings: in vivo
Give just the numeric value; % need not be written.

Query: Which bioavailability is reported for this compound? "CC(C)Cn1c2ccc(Nc3ncccn3)cc2c2c3c(c4c(c21)CCc1nn(C)cc1-4)C(=O)NC3"
Reply: 44

Query: "CCCn1c2ccc(Nc3ncccn3)cc2c2c3c(c4c(c21)CCc1nn(C)cc1-4)C(=O)NC3" , same question.
Reply: 22

* * *

test: AUC in cynomolgus monkey at 3 mg/kg, po; format: ADME, organism-based, Macaca fascicularis; parameters: dose 3 mg/kg, route oral; conditions: plasma
readout_kind: AUC (ng·h/mL)
Express your answer in ng·h/mL, writing the number without its unit.

Query: Report AUC for CC(C)Cn1c2ccc(Nc3ncccn3)cc2c2c3c(c4c(c21)CCc1nn(C)cc1-4)C(=O)NC3 [CEP-11981] please.
Reply: 2480

* * *

target: Casein kinase I isoform alpha (Homo sapiens, UniProt P48729); assay: Inhibition of CK1 using ATP as substrate
Sequence (P48729 whole entry, canonical isoform): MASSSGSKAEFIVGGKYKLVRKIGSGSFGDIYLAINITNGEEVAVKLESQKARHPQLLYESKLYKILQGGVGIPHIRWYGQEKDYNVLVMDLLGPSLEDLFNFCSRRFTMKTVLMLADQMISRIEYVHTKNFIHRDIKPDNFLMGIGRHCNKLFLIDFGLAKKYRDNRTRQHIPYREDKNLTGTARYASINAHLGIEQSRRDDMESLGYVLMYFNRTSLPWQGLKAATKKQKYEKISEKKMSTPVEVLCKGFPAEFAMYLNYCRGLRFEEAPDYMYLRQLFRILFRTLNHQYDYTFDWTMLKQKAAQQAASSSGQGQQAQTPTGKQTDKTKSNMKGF
readout_kind: pIC50
Worth noting: pIC50 values are minus log10 of concentrations stated in mol/L.

Query: pIC50; subject: "CC(C)Cn1c2ccc(Nc3ncccn3)cc2c2c3c(c4c(c21)CCc1nn(C)cc1-4)C(=O)NC3"
Reply: 7.32

* * *

assay: Half life in Sprague-Dawley rat at 5 mg/kg, po; type: ADME, organism-based; parameters: dose 5 mg/kg, route oral; conditions: in vivo
readout_kind: half-life (h)
The response must be a number in h with no trailing unit.

Query: Which measured half-life value corresponds to "CC(C)Cn1c2ccc(Nc3ncccn3)cc2c2c3c(c4c(c21)CCc1nn(C)cc1-4)C(=O)NC3" ?
Reply: 3

* * *

test system: HUVEC; assay: Antiangiogenic activity in HUVEC assessed as inhibition of FGF-induced survival; type: functional, cell-based; settings: Homo sapiens
readout_kind: EC50 (nM)
Form entry: value (nM) — number only.

Query: Requested read-out: EC50. Entry: "CC(C)Cn1c2ccc(Nc3ncccn3)cc2c2c3c(c4c(c21)CCc1nn(C)cc1-4)C(=O)NC3"
Reply: 8

* * *

assay: Half life in cynomolgus monkey at 3 mg/kg, po; assay type: ADME, organism-based, Macaca fascicularis; design: dose 3 mg/kg, route oral; conditions: in vivo
readout_kind: half-life (h)
Express the result in h but write the number alone.

Query: Param item = CC(C)Cn1c2ccc(Nc3ncccn3)cc2c2c3c(c4c(c21)CCc1nn(C)cc1-4)C(=O)NC3 [CEP-11981] ; retrieve measured half-life.
Reply: 2.4

* * *

target: High affinity nerve growth factor receptor (Homo sapiens)
readout_kind: IC50 (nM)
Unit nM implied. Number only.

Query: IC50 lookup needed for CC(C)Cn1c2ccc(Nc3ncccn3)cc2c2c3c(c4c(c21)CCc1nn(C)cc1-4)C(=O)NC3 [CEP-11981] , thanks.
Reply: 3

* * *

assay: Antiangiogenic activity in HMVEC assessed as inhibition of FGF-induced migration; type: functional; conditions: Homo sapiens
readout_kind: pEC50
Scale explanation: pEC50 corresponds to minus log10 of a concentration expressed in moles per litre.

Query: Data request, read-out pEC50, for CC(C)Cn1c2ccc(Nc3ncccn3)cc2c2c3c(c4c(c21)CCc1nn(C)cc1-4)C(=O)NC3 [CEP-11981]
Reply: 8.10

* * *

molecular target: Serine/threonine-protein kinase Chk2 (Homo sapiens)
Sequence (O96017 whole entry): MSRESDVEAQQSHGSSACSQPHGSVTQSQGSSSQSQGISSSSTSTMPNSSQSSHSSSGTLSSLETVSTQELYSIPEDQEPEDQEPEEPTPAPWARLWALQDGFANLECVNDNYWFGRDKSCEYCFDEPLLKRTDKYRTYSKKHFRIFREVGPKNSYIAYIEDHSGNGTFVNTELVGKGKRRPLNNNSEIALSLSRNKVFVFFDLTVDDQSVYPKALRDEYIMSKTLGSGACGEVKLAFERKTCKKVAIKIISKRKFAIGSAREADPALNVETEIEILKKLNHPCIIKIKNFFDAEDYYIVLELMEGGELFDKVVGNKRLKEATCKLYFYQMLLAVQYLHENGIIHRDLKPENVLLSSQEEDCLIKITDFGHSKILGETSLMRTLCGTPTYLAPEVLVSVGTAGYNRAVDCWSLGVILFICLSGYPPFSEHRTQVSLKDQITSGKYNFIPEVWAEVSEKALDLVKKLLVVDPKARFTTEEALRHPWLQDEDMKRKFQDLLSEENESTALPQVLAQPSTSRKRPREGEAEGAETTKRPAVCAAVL
readout_kind: IC50 (nM)
Provide the reading as a plain figure in nM.

Query: For the compound shown here, "CC(C)Cn1c2ccc(Nc3ncccn3)cc2c2c3c(c4c(c21)CCc1nn(C)cc1-4)C(=O)NC3" , give the reported IC50.
Reply: 140

* * *

target: Cytochrome P450 2C19 (Homo sapiens)
readout_kind: IC50
Kindly write the number and append the unit.

Query: Look up IC50: "CC(C)Cn1c2ccc(Nc3ncccn3)cc2c2c3c(c4c(c21)CCc1nn(C)cc1-4)C(=O)NC3"
Reply: 9 µM
